- System: Phytophthora infestans
- Assay type: in vivo
- EXPERIMENTAL_PARAMETERS: tomato plants, protective spray, active ingredient concentration 100 ppm, evaluation 7 days after inoculation; 0% = control, 100% = no infection
Quick reference: Eff. % of the listed items.
OBSERVABLE: Eff. % (%)

COMPOUND | OBSERVABLE | VALUE
CN(C)C(=S)c1ccccc1C1CC(c2csc(C3CCN(C(=O)Cn4nc(C(F)F)cc4C(F)F)CC3)n2)=NO1 (stereo not shown) | Eff. % | 97
O=C(Cn1nc(C(F)F)cc1C(F)F)N1CCC(c2nc(C3=NOC(c4cccc(C=NO)c4)C3)cs2)CC1 (mixture of isomers) | Eff. % | 100
Cc1cc(C(F)(F)F)nn1CC(=O)N1CCC(c2nc(C3=NOC(c4cccc(OCC#N)c4)C3)cs2)CC1 (stereo not shown) | Eff. % | 100
CON=Cc1ccccc1C1CC(c2csc(C3CCN(C(=O)Cn4nc(C(F)(F)F)cc4C)CC3)n2)=NO1 (mixture of isomers) | Eff. % | 100
C=CCOCc1ccccc1C1CC(c2csc(C3CCN(C(=O)Cn4nc(C(F)F)cc4C(F)F)CC3)n2)=NO1 (stereo not shown) [I-139] | Eff. % | 80
COCCS(=O)(=O)Cc1ccccc1C1CC(c2csc(C3CCN(C(=O)Cn4nc(C(F)(F)F)cc4C)CC3)n2)=NO1 (racemic) | Eff. % | 94
Cc1ccc(C)c(NC(=O)N2CCC(c3nc(C4=NOC(c5ccccc5OS(C)(=O)=O)C4)cs3)CC2)c1 (stereo not shown) | Eff. % | 100

###

Quick reference: logp [a] of the listed items.
- EXPERIMENTAL_PARAMETERS: pH 2.7

MOLECULE | logp [a]
C#CCOCc1ccccc1C1CC(c2csc(C3CCN(C(=O)Cn4nc(C(F)F)cc4C(F)F)CC3)n2)=NO1 (racemic) [I-53] | 3.31[a]
Cc1cc(C(F)(F)F)nn1CC(=O)N1CCC(c2nc(C3=NOC(c4ccccc4OS(=O)(=O)C4CC4)C3)cs2)CC1 (racemic) | 3.29[a],
Cc1ccc(S(=O)(=O)Oc2ccccc2C2(C)CC(c3csc(C4CCN(C(=O)Cn5nc(C(F)F)cc5C(F)F)CC4)n3)=NO2)cc1 (racemic) | 4.31[a],

###

- Tested on: Phytophthora infestans
- Assay type: in vivo
- EXPERIMENTAL_PARAMETERS: tomato plants, protective spray, active ingredient concentration 100 ppm, evaluation 7 days after inoculation; 0% = control, 100% = no infection
OBSERVABLE: Eff. % (%)

MOLECULE | VALUE
CC(=NO)c1cccc(C2CC(c3csc(C4CCN(C(=O)Cn5nc(C(F)F)cc5C(F)F)CC4)n3)=NO2)c1 (mixture of isomers) [I-18] | 100
Cc1ccc(Cl)cc1NC(=O)N1CCC(c2nc(C3=NOC(c4c(Cl)cccc4OS(C)(=O)=O)C3)cs2)CC1 (racemic) [I-54] | 94
C#CCOCc1ccccc1C1CC(c2csc(C3CCN(C(=O)Cn4nc(C(F)F)cc4C(F)F)CC3)n2)=NO1 (centres unmarked) [I-138] | 93
CC(=O)OCc1ccccc1C1CC(c2csc(C3CCN(C(=O)Cn4nc(C(F)(F)F)cc4C)CC3)n2)=NO1 (racemic) [I-47] | 94
COC(=O)COc1ccc(C2CC(c3csc(C4CCN(C(=O)Cn5nc(C(F)F)cc5C(F)F)CC4)n3)=NO2)cc1 (centres unmarked) [I-128] | 90
CCS(=O)(=O)Oc1ccccc1C1CC(c2csc(C3CCN(C(=O)Cn4nc(C(F)F)cc4C(F)F)CC3)n2)=NO1 (centres unmarked) [I-65] | 100
CCS(=O)(=O)Oc1ccccc1C1CC(c2csc(C3CCN(C(=O)Cn4nc(C(F)(F)F)cc4C)CC3)n2)=NO1 (centres unmarked) [I-119] | 89
CON=Cc1cccc(C2CC(c3csc(C4CCN(C(=O)Nc5cc(Cl)ccc5C)CC4)n3)=NO2)c1 (mixture of isomers) [I-19] | 100
CS(=O)(=O)Oc1ccc(F)c(C2CC(c3csc(C4CCN(C(=O)Cn5nc(C(F)F)cc5C(F)F)CC4)n3)=NO2)c1F (racemic) [I-50] | 94
CCON=Cc1cccc(C2CC(c3csc(C4CCN(C(=O)Nc5cc(Cl)ccc5C)CC4)n3)=NO2)c1 (mixture of isomers) [I-12] | 95
Cc1ccc(Cl)cc1NC(=O)N1CCC(c2nc(C3=NOC(c4cccc(C=NO)c4)C3)cs2)CC1 (mixture of isomers) [I-14] | 100
N#CCOc1cccc(C2CC(c3csc(C4CCN(C(=O)Cn5nc(C(F)F)cc5C(F)F)CC4)n3)=NO2)c1 (centres unmarked) [I-110] | 100
Cc1cc(C(F)(F)F)nn1CC(=O)N1CCC(c2nc(C3=NOC(c4c(F)cccc4OCC#N)C3)cs2)CC1 (centres unmarked) [I-86] | 75
O=C(Oc1ccccc1C1CC(c2csc(C3CCN(C(=O)Cn4nc(C(F)F)cc4C(F)F)CC3)n2)=NO1)c1ccc(F)cc1 (centres unmarked) [I-132] | 100
